tested on: OVCAR-8 ovarian; assay: NCI-60 one-dose screen, 48 h (100 = growth as untreated, 0 = no growth, -100 = all killed); settings: 10 µM unless noted
Compounds without any hit were thinned out: in the full panel of roughly 83,000, 20% have a hit.
growth vs 20%: less than gives met; not less than gives not met.

Here's what some known entries look like.
molecule	group
COc1ccc2c(c1)c(-c1nc(-c3c[nH]c4c(Cl)nccc34)cs1)cn2C	not met
COc1ccccc1/C=C1\COc2ccc(O)c(O)c2C1=O	met
O=C1/C(=C/c2cn(-c3ccccc3)nc2-c2ccccc2)SC(=S)N1c1ccccc1	not met
C=C(C)[C@@H]1CC[C@]2(C(=O)O)CC[C@]3(C)[C@H](CC[C@@H]4[C@@]5(C)CCC(N)C(C)(C)[C@@H]5CC[C@]43C)[C@@H]12 (stereo partly drawn)	not met
COc1cc2c(cc1OCCCOC1=C=C=C(c3ccc4c(c3)c3cc(-c5ccc(OCCCOc6cc7c(cc6OC)C(=O)N6CCC[C@H]6C=N7)cc5)ccc3n4S(=O)(=O)c3ccc(C)cc3)C=C1)N=C[C@@H]1CCCN1C2=O	not met

## Task Report whether reported growth is lower than 20% (strictly) for CCCN1C(=O)/C(=c2\sc3n(c2=O)C2C(NN=3)N(CC)C(=O)N2CC)c2ccccc21 (stereo not drawn)
## Result met

## Task Report whether reported growth is lower than 20% (strictly) for Cn1cc(C2=C(c3cccc4ccccc34)C(=O)NC2=O)c2cc(Br)ccc21
## Result not met

---

Test system: M14 melanoma
Assay: NCI-60 one-dose screen, 48 h
Conditions: 10 µM unless noted
Protocol: Growth inhibition of the M14 human tumor cell line is measured as a screen for anti-cancer activity. Cells are grown in 96 well plates and exposed to the test compound for 48 hours. Compounds are tested at a single concentration, which is 10^-5 M for most compounds. The reported endpoint is percent growth (GI% or GIPRCNT), where numbers from 0 - 100% represent growth inhibition, and numbers from -100% - 0 represent cell death. For example, a value of 40 represents 60% growth inhibition. […]
Compounds without any hit were thinned out: in the full panel of roughly 83,000, 20% have a hit. Activity calls are given as the source filed them. The calls were made as follows: active = growth percent below 10; inactive = the rest.
Write down one outcome, taken from Y = active, N = inactive

Here's what some known entries look like.
compound	group
COc1ccc(Cl)cc1Nc1nc(C(F)(F)F)ccc1C(=O)N/N=C/c1ccc(N(C)C)cc1	N
CCCCCCCCCCCCCCCCCCn1cc(COc2ccc(C=O)cc2)nn1	N

## Task Just curious, what result did N=c1c2c(-c3ccccc3)c(-c3ccccc3)oc2ncn1NC(=O)c1cccnc1 get here?
## Result N

## Task Just curious, what result did Cc1[nH]c(C(=O)Nc2nc3ccc(NC(=O)CCN)cc3s2)c(Cl)c1Cl get here?
## Result N

---

test system: OVCAR-4 ovarian; experiment: NCI-60 one-dose screen, 48 h (100 = growth as untreated, 0 = no growth, -100 = all killed); details: 10 µM unless noted
About 83,000 compounds went through this panel and 20% of them were active in at least one assay; those are over-represented in the sample as a whole. Active and inactive are the calls of the source. Rule for the calls: active = growth percent below 10; inactive = the rest.
As shown below, each of these compounds has a reported growth value.

Study these solved cases before continuing.
compound	growth
CCN1C(=S)N(CC)C2C1NC(=S)N2/N=C/C=C/c1ccccc1 (stereo not drawn)	61% (inactive)
Cc1ccc(-c2nc3nc(-c4ccccc4)nc(N4CCN(S(=O)(=O)c5ccccc5)CC4)c3o2)cc1	99.6% (inactive)
N#Cc1cc(-c2ccnc(Nc3ccc(NC(=O)CCl)cc3)n2)ccc1N1CCCC1	-20.8% (active)

## Task Look at this compound and give its reported growth. C=C(C)[C@@H]1CC[C@]2(C(=O)N3CCN(C)CC3)CC[C@]3(C)[C@H](CC[C@@H]4[C@@]5(C)CC(CCCNC(C)=O)(CCCNC(C)=O)[C@H](OC(C)=O)C(C)(C)[C@@H]5CC[C@]43C)[C@@H]12
## Result 111% (inactive)

## Task Look at this compound and give its reported growth. COc1nc(=O)n(C2C=CC(=O)O2)cc1F (stereo not drawn)
## Result 71.3% (inactive)

## Task Look at this compound and give its reported growth. COc1cc2nc3cc([N+](=O)[O-])ccc3c(NCCNCC(C)(C)O)c2cc1OC
## Result -31.8% (active)

## Task Look at this compound and give its reported growth. CN(C)c1ccc2nc3ccc(=O)cc-3sc2c1
## Result 2.9% (active)
